Test system: RPMI-8226 leukemia
Assay: NCI-60 one-dose screen, 48 h
Settings: 10 µM unless noted
This is part of a sample that, as a whole, favours compounds with a hit. Of some 83,000 tested, about 20% had one in any assay. Calls of active or inactive are those of the source. The calls were made as follows: active = growth percent below 10; inactive = the rest.
Return exactly one item of Yes for active, No for inactive

Q) GET /call?item= Cc1c2ccccc2c(C)c2c1ccc1ccccc12 returns the recorded outcome of this test.
A) No

Q) Thanks! And Cn1c2c(c3ccccc31)CCN1C[C@@H]3CCCC[C@H]3C[C@@H]21 ?
A) No

Q) Thanks! And N#CSCc1c(Cl)cccc1Cl ?
A) No

Q) Thanks! And CN(C)c1ccc(N=Nc2cccc3ccccc23)cc1 ?
A) No

Q) Thanks! And CC1OC(OC2C(OC3CCC4(C)C(CCC5(C)C4CC=C4C6CC(C)(C)CCC6(CO)C(O)CC45C)C3(C)C)OC(C(=O)O)C(OC3OC(COC4OC(CO)C(O)C(O)C4O)C(O)C(O)C3O)C2O)C(O)C(O)C1O (centres undefined) ?
A) Yes

Q) Thanks! And OC(CNc1ccnc2cc(Cl)ccc12)CNc1ccnc2cc(Cl)ccc12 ?
A) No

Q) Thanks! And O=C(/C=C\c1cc(Br)ccc1O)/C=C/c1cc(Br)ccc1O ?
A) Yes

Q) Thanks! And C/C=C1\SC(=S)NC1=O ?
A) No

Q) Thanks! And O=C1C=CC(=O)N1C1c2ccccc2-c2ccccc21 ?
A) No

Q) Thanks! And CCCCCCC(C)c1ccccc1O (centres undefined) (tested in a mixture with another compound) ?
A) No

Q) Thanks! And O=[N+]([O-])c1ccc2c(N=Nc3ccc4ccccc4c3O)c(O)cc(S(=O)(=O)O)c2c1 ?
A) No

Q) Thanks! And O=C(Nc1ccc(F)cc1)ON=C1CCCCC1 ?
A) No

Q) Thanks! And CC(C)c1ccc2nc3ccc(C(=O)NCCN4CCN(c5ccccc5)CC4)cn3c(=O)c2c1 ?
A) No

Q) Thanks! And CCOC(=O)/C=C/c1ccc([N+](=O)[O-])o1 ?
A) No

Q) Thanks! And CCN(CC)CC(C)(C)C(=O)/C=C/c1ccc(Cl)c(Cl)c1 ?
A) Yes

Q) Thanks! And CN(C)C(=O)SC1=C(c2c(Cl)cccc2Cl)C(=O)c2ccccc21 ?
A) Yes

Q) Thanks! And CCCCCCCCCCCCCCCC[N+](C)(CCO)Cc1cnc[nH]1 (centres undefined) ?
A) Yes

Q) Thanks! And CCOc1ccc(-c2nc3ccc(-c4nc5ccc(N6CCN(C)CC6)cc5[nH]4)cc3[nH]2)cc1 ?
A) Yes

Q) Thanks! And CC1OC2CC(=O)OC2C2=C1C(=O)c1c(O)cccc1C2=O (centres undefined) ?
A) Yes
